- System: SKRC52 human renal tumor xenograft
- protocol-summary: Whole body fluorescence imaging of SKRC52 human renal tumor xenograft bearing mouse (IVIS imager)
- Format: in vivo
- experimental-context: 10 nmol, imaged at different time intervals
observable: tumor-to-background ratio (TBR)

CN(C)C(N(c1c(F)c(S(N)(=O)=O)c(F)c(F)c1S(=O)(=O)CCC(=O)NCCOCCOCCC(=O)N[C@@H](Cc1ccc(OC2=C(/C=C/C3=[N+](CCCCS(=O)(=O)O)c4ccc(S(=O)(=O)O)cc4C3(C)C)CCC/C2=C\C=C2\N(CCCCS(=O)(=O)O)c3ccc(S(=O)(=O)O)cc3C2(C)C)cc1)C(=O)O)C1CCCCCCC1)=[N+](C)C | excellent
CC1(C)C(/C=C/C2=C(Oc3ccc(C[C@H](NC(=O)CCOCCOCCNC(=O)CCS(=O)(=O)c4ccc(S(N)(=O)=O)cc4NC4CCCCCCC4)C(=O)O)cc3)C(=C/C=C3/N(CCCCS(=O)(=O)O)c4ccc(S(=O)(=O)O)cc4C3(C)C)/CCC2)=[N+](CCCCS(=O)(=O)[O-])c2ccc(S(=O)(=O)O)cc21 | excellent
CC1(C)C(/C=C/C2=C(Oc3ccc(C[C@H](NC(=O)CCS(=O)(=O)c4c(F)c(F)c(S(N)(=O)=O)c(F)c4NC4CCCCCCC4)C(=O)O)cc3)C(=C/C=C3/N(CCCCS(=O)(=O)O)c4ccc(S(=O)(=O)O)cc4C3(C)C)/CCC2)=[N+](CCCCS(=O)(=O)[O-])c2ccc(S(=O)(=O)O)cc21 | excellent
